- tested target: T1, Anti-CD28 Fab (SEQ ID NOs: 696, 697)
- T1 construct: In the phage ELISA the Fab was biotinylated and captured on neutravidin coated plates
- T1 sequence (VH, as listed by the source, chain 1 of 2): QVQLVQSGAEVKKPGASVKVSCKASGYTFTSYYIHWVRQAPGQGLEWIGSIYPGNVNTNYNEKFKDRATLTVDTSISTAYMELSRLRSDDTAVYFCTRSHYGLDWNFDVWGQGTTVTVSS
- T1 sequence (VL, as listed by the source, chain 2 of 2): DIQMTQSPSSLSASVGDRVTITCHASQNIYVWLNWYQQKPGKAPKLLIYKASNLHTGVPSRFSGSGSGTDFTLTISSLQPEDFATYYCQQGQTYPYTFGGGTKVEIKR
- assay summary: phage ELISA; biotinylated anti-CD28 Fab on neutravidin plate, clonal phage supernatant, anti-M13 HRP detection;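 note: crude supernatants of single phage clones picked after panning were screened for binding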
measurement kind: Phage binding ELISA, Anti-CD28 Fab signal
# respond with the number and nothing more

Q) Quick one: Phage binding ELISA, Anti-CD28 Fab signal for YCDGHLAEYMPKCL (Tested as clonal phage supernatant) [Phage-770] ?
A) 1.89

Q) Quick one: Phage binding ELISA, Anti-CD28 Fab signal for YCAGHAPQYMEKCL (Tested as clonal phage supernatant) [Phage-762] ?
A) 1.9

Q) Quick one: Phage binding ELISA, Anti-CD28 Fab signal for YCDGHRPEYMEKCL (Tested as clonal phage supernatant) [Phage-765] ?
A) 1.9

Q) Quick one: Phage binding ELISA, Anti-CD28 Fab signal for YCDGHSPEYMPKCL (Tested as clonal phage supernatant) [Phage-769] ?
A) 1.89

Q) Quick one: Phage binding ELISA, Anti-CD28 Fab signal for YCEGHVAEYMLKCL (Tested as clonal phage supernatant) [Phage-773] ?
A) 1.88

Q) Quick one: Phage binding ELISA, Anti-CD28 Fab signal for YCEGHLSEYMSKCL (Tested as clonal phage supernatant) [Phage-774] ?
A) 1.88

Q) Quick one: Phage binding ELISA, Anti-CD28 Fab signal for YCAGHLPQYIAKCL (Tested as clonal phage supernatant) [Phage-763] ?
A) 1.9

Q) Quick one: Phage binding ELISA, Anti-CD28 Fab signal for YCDGHLKEYMAKCL (Tested as clonal phage supernatant) [Phage-764] ?
A) 1.9

Q) Quick one: Phage binding ELISA, Anti-CD28 Fab signal for YCDGHIDEYLQKCL (Tested as clonal phage supernatant) [Phage-772] ?
A) 1.88
